# Assay System: T1, ALKTG-EGFL (human ALK amino acids 648-1025) (human, UniProt Q9UM73 648-1025, N-linked glycans; EndoH-trimmed (deglycosylated) for crystals and SEC-MALLS)
# T1 construct: The C-terminal Fc-His6 tag was removed by caspase 3; also called ALK (in BLI, SEC-MALLS and ITC)
# T1 sequence (Q9UM73 648-1025): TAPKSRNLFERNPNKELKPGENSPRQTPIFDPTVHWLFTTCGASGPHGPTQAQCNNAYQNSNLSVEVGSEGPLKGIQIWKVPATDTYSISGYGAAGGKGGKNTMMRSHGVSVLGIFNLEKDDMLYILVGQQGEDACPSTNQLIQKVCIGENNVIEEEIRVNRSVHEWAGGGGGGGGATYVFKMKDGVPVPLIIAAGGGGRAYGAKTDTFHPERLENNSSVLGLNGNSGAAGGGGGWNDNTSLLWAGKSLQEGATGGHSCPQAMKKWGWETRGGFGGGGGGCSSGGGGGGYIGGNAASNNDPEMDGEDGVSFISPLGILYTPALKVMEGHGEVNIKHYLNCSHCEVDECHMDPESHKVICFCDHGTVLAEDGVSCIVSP
# Measurement Description: ITC, 310 K, one-site model
Reported Endpoint: pKd
In textbook form, pKd equals minus log to base ten of the concentration in mol/L.

[[record]]
binder = "ALKAL2 (truncated, residues 78-152) (ligand, human, UniProt Q6UX46 78-152, looked up, range 78-152; Tag-free in ITC, SEC-MALLS, crystals and Ba/F3 assays; also called ALKAL2^WT; WT ALKAL2) PSPEQRVEIVPRDLRMKDKFLKHLTGPLYFSPKCSKHFHRLYHNTRDCTIPAYYKRCARLLTRLAVSPVCMEDKQ"
reported_endpoint = "pKd"
reported_value = 7.40


Turning now to a further binder:
stdin: Please look at this binder and report its pKd: ALKAL1 (truncated, residues 57-129) (ligand, human, UniProt Q6UXT8 57-129, looked up, range 57-129; Tag-free in ITC, SEC-MALLS, crystals and Ba/F3 assays; also called ALKAL1^WT; WT ALKAL1) PSGSRSAEIFPRDSNLKDKFIKHFTGPVTFSPECSKHFHRLYYNTRECSTPAYYKRCARLLTRLAVSPLCSQT
stdout: 6.22
